# Test target: PERK recombinant enzyme (cytoplasmic domain corresponding to residues 540-1115) (Homo sapiens (Human), UniProt Q9NZJ5)
# Sequence (Q9NZJ5 540-1115): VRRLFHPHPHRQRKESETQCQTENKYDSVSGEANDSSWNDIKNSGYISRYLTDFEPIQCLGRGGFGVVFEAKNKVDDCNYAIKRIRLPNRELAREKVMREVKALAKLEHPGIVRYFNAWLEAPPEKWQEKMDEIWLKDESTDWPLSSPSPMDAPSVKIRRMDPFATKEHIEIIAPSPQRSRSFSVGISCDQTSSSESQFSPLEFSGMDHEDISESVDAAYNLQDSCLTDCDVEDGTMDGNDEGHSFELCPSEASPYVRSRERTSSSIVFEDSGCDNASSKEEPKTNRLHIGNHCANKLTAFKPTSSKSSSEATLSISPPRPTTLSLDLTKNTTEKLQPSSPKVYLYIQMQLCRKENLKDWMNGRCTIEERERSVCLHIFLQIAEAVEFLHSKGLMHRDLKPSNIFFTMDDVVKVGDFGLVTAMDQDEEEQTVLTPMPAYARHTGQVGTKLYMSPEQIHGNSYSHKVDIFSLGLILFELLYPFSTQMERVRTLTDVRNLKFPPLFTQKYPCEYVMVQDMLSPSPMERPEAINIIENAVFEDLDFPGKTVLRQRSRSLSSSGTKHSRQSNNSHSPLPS
# Procedure summary: PERK enzyme assay, Method 1: ADP-Glo Kinase Assay (quantification of ADP formed)
# Format: biochemical
# Conditions: 52 microM ATP, 8 nM PERK, 300 microM eIF2alpha peptide substrate, 60 minutes at room temperature
Measured property: pIC50

# lookup: pIC50 of Cn1cc(-c2cccc(NS(=O)(=O)c3cc(F)c(Br)cc3F)c2F)c2c(N)ncnc21 [cmpd 46] AA (7.8 ≤ pIC50)

Also, Cn1cc(-c2cccc(NS(=O)(=O)c3cccc(Cl)c3)c2F)c2c(N)ncnc21 [cmpd 13] please. AA (7.8 ≤ pIC50)

Also, COc1ccc(S(=O)(=O)Nc2cccc(-c3cn(C)c4ncnc(N)c34)c2F)cc1Br [cmpd 87] please. AA (7.8 ≤ pIC50)
